Data origin: PubChem BioAssay AID1996

conditionSet: buffer; pH 7.4; 200.0 µM

compound | solubility kinetic
COc1ccc(-c2nc(-c3cccs3)no2)cc1 | < 0.3 µg/mL
FC(F)(F)Sc1ccc(NC(=S)NCc2ccccc2)cc1 | < 0.4 µg/mL
CCC(=O)NN1CCN(c2ccncc2S(=O)(=O)N2CCCCC2)CC1 | > 57.2 µg/mL
OCCC1CN(CC2CC2)CCN1Cc1ccc(F)c(F)c1 (stereo unspecified) | > 46.6 µg/mL
CCOC(=O)N1CCN(CC(O)c2c[nH]c3ccccc23)CC1 (stereo unspecified) | > 47.6 µg/mL
COc1ccccc1OCC(O)CN1CCN(CC(=O)Nc2c(C)cccc2C)CC1.Cl (stereo unspecified) | > 75.1 µg/mL
